measure: melting point

Example results:
>>> df
                                   compound        measure     test_value
0  CS(=O)(=O)n1c(C#N)nc2cc3c(cc21)OC(F)(F)C(F)(F)O3  melting point  180 to 183 °C
1  CCN1CCc2cc(Nc3ncc(Cl)c(Nc4ccccc4C(=O)NC)n3)c(OC)c(N)c2CC1  melting point  117 to 160 °C
2  O=C(OCCOC(c1ccccc1)(c1ccccc1)c1ccccc1)Oc1ccc([N+](=O)[O-])cc1  melting point  136 to 141 °C
3    C=Cc1ccc2[nH]cc(S(=O)(=O)c3ccccc3)c2c1  melting point  140 to 145 °C
4  CC(=O)Nc1nc2c(Oc3cc(-c4ccc(C(F)(F)F)cc4OS(=O)(=O)C(F)(F)F)ncn3)cccc2s1  melting point  209 to 212 °C
5      N#Cc1cnc2c(c1)N(Cc1cc(Cl)ccc1Cl)CCN2  melting point  221 to 222 °C
6      CC1(C)C(=O)Nc2cc3[nH]c(C4CC4)nc3cc21  melting point  266 to 268 °C
7  Clc1cccc(C2CCN(CCCCOc3ccc4scnc4c3)CC2)c1Cl  melting point    79 to 81 °C

Looking up c1ccc(-c2cc(-n3ccc4ccccc43)c3ccccc3n2)cc1 , I found its melting point recorded as 100 to 102 °C

Lookup result for CC[C@H](NC(=O)OC(C)(C)C)C(=O)OCCCCNc1cccc2c1C(=O)c1ccccc1C2=O ; measured melting point: 58 °C

What the record says about O=C(O)c1ccc(-c2nnc(-c3ccc(C(F)(F)F)cc3)o2)c([N+](=O)[O-])c1 : melting point is 254 to 255 °C

Where do these numbers come from? They come from a melting point compilation (Tetko et al.; mined from patent text by program, amines drawn as free bases though some values may be those of a salt).
